Hey, just so you know, these numbers are from ChEMBL document CHEMBL5038634.

# Assay: AUC (all) in C57BL/6J mouse at 0.4 mg/kg, iv measured at 0.08 to 24 hrs by LC-MS/MS analysis
# Format: ADME, organism-based
# Set-up: route intravenous, time 0.08-24 hrs, dose 0.4 mg/kg
# Measurement Setup: in vivo
Reported Property: AUC (ng·h/mL)
One number for each entry, in ng·h/mL.

Past entries and their recorded results:
O=c1[nH]nc2ccc(Sc3cccc(Cl)c3)nn12 300
Cc1ccc(Sc2ccc3n[nH]c(=O)n3n2)cc1 2330
O=c1[nH]nc2ccc(Sc3cccc(OC(F)(F)F)c3)nn12 270

# next molecule below
Give the measured AUC of O=c1[nH]nc2ccc(Sc3ccc(Cl)c(Cl)c3)nn12 .
360

----------
# Assay: Half life in C57BL/6J mouse at 0.4 mg/kg, iv measured at 0.08 to 24 hrs by LC-MS/MS analysis
# Assay type: ADME, organism-based
# Measurement Setup: in vivo, time 0.08-24 hrs
For each of the compounds below, state its half-life.
Answers are plain numbers, in min.

Cc1ccc(Sc2ccc3n[nH]c(=O)n3n2)cc1 36
O=c1[nH]nc2ccc(Sc3cccc(Cl)c3)nn12 18
O=c1[nH]nc2ccc(Sc3ccc(Cl)c(Cl)c3)nn12 42

Requested read-out: half-life. Entry: O=c1[nH]nc2ccc(Sc3cccc(OC(F)(F)F)c3)nn12
6

----------
# Measured On: Palmitoleoyl-protein carboxylesterase NOTUM (Homo sapiens, UniProt Q6P988, C330S)
# Assay: Inhibition of human Notum (81 to 451 Cys330Ser) using OPTS as substrate incubated for 40 mins by fluorescence based assay
Reported Property: pIC50
Numbers only, as −log10 of the molar value.

A selection of reference data follows.
Cc1cccc(Sc2ccc3n[nH]c(=O)n3n2)c1C 7.85
Cc1ccc(/C=C2/N=C(c3ccc(C)c(C)c3)OC2=O)o1 8.07
O=c1[nH]nc2ccc(Sc3ccc(C(F)(F)F)cc3)nn12 7.55
O=c1[nH]nc2ccc(Sc3cccc(OC(F)(F)F)c3)nn12 8.40
O=c1[nH]nc2ccc(Sc3ccc(Cl)cc3)nn12 7.68
O=c1[nH]nc2ccc(Sc3cccc(F)c3F)nn12 7.20
O=c1[nH]nc2ccc(Sc3cccc(C(F)(F)F)n3)nn12 6.39
Cc1ccccc1Sc1ccc2n[nH]c(=O)n2n1 7.30

Now consider the entry below.
Looking for the measured pIC50 of Cc1ccc(C2=N/C(=C/c3ccccc3)C(=O)O2)cc1C , can you help?
6.70

----------
For each of the compounds below, state its pIC50.
# Measured On: Palmitoleoyl-protein carboxylesterase NOTUM (Homo sapiens, UniProt Q6P988, C330S)
# Assay: Inhibition of human Notum (81 to 451 Cys330Ser) using OPTS as substrate incubated for 40 mins by fluorescence based assay
One number for each entry, as −log10 of the molar value.

Cc1ccc(Oc2ccc3n[nH]c(=O)n3n2)cc1 5.51
O=c1[nH]nc2ccc(Sc3ccccc3C(F)(F)F)nn12 7.05
O=c1[nH]nc2ccc(Sc3ccc(F)cc3)nn12 7.03

Any idea what pIC50 was measured for Cc1cccc(Sc2ccc3n[nH]c(=O)n3n2)n1 ?
6.19

----------
# Measured On: Palmitoleoyl-protein carboxylesterase NOTUM (Homo sapiens, UniProt Q6P988, C330S)
# Assay: Inhibition of human Notum (81 to 451 Cys330Ser) using OPTS as substrate incubated for 40 mins by fluorescence based assay
Rule for this label: 1.0 means IC50 is less than 20 nM; 0.0 means IC50 is at least 20 nM.

These solved cases illustrate the format of a correct answer.
O=C1OC(c2cccc(Cl)c2Cl)=N/C1=C/c1ccco1 1.0
Cc1ccc(Sc2ccc3n[nH]c(=O)n3n2)c(C)c1 0.0
Cc1ccc(Sc2ccc3n[nH]c(=O)n3n2)nc1 0.0
Cc1ccc(/C=C2\N=C(c3ccc(C)c(C)c3)OC2=O)o1 1.0
COc1cccc(Sc2ccc3n[nH]c(=O)n3n2)c1 1.0

For this molecule, is IC50 lower than 20 nM? O=c1[nH]nc2ccc(Sc3cccc(Cl)c3Cl)nn12
1.0

State whether 20 nM exceeds IC50 recorded for Cc1ccc(S(=O)(=O)c2ccc3n[nH]c(=O)n3n2)cc1 .
0.0

----------
# Measured On: Palmitoleoyl-protein carboxylesterase NOTUM (Homo sapiens, UniProt Q6P988, C330S)
# Assay: Inhibition of human Notum (81 to 451 Cys330Ser) using OPTS as substrate incubated for 40 mins by fluorescence based assay
# note: exactly 20 nM is not below, so it is label 0; use label 1 for IC50 strictly under it

Solved entries (count: 3):
Compound	Category Label
Cc1ccc([S+]([O-])c2ccc3n[nH]c(=O)n3n2)cc1 (stereo not given)	label 0
CSc1cccc(Sc2ccc3n[nH]c(=O)n3n2)c1	label 0
O=c1[nH]nc2ccc(Sc3ccccc3Cl)nn12	label 0

Lab log: compare recorded IC50 with 20 nM; is it strictly lower for O=C1OC(c2cccc3ccccc23)=N/C1=C/c1ccco1 ?
label 0

Could you please tell me whether IC50 recorded for O=c1[nH]nc2ccc(Sc3cccc(F)c3)nn12 is less than 20 nM?
label 0

Hello, I'm reviewing records and need to know if IC50 of O=c1[nH]nc2ccc(Sc3ccccc3)nn12 is below 20 nM. Could you check?
label 0

Lab note: confirm whether the reported IC50 for this compound is below 20 nM, equality not counting. compound: CC(C)Oc1cccc(Sc2ccc3n[nH]c(=O)n3n2)c1
label 0

Is it true that IC50 reported for O=c1[nH]nc2ccc(Sc3ccccc3F)nn12 is less than 20 nM?
label 0

Decide: IC50 of Cc1ccc(Sc2nn3c(=O)[nH]nc3c(C)c2C)cc1 strictly below 20 nM?
label 0

For O=C1OC(c2ccc(Cl)cc2Cl)=N/C1=C\c1ccco1 , is the recorded IC50 below the cut-off of 20 nM?
label 1

IC50 under 20 nM? Item: Cc1cc(C)cc(Sc2ccc3n[nH]c(=O)n3n2)c1
label 0

----------
Please provide measured IC50 for the entries that follow.
# Measured On: Palmitoleoyl-protein carboxylesterase NOTUM (Homo sapiens, UniProt Q6P988, C330S)
# Assay: Inhibition of human Notum (81 to 451 Cys330Ser) using OPTS as substrate incubated for 40 mins by fluorescence based assay

The examples below pair each entry with its known result.
O=c1[nH]nc2ccc(Sc3ccncn3)nn12 > 10 µM
COc1ccc(/C=C2/N=C(c3cccc(Cl)c3Cl)OC2=O)c(OC)c1 > 10 µM

Here is the next item to consider.
Requested read-out: IC50. Entry: O=c1[nH]nc2ccc(Sc3ncccn3)nn12
> 10 µM

----------
# Measured On: Palmitoleoyl-protein carboxylesterase NOTUM (Homo sapiens, UniProt Q6P988, C330S)
# Assay: Inhibition of human Notum (81 to 451 Cys330Ser) using OPTS as substrate incubated for 40 mins by fluorescence based assay
Consider the following compounds; for each one, report its pIC50.
Numbers only, as −log10 of the molar value.

The cases that follow already have their pIC50 on record.
CCOc1cccc(Sc2ccc3n[nH]c(=O)n3n2)c1 7.70
Cc1ccc(Cc2ccc3n[nH]c(=O)n3n2)cc1 6.62
O=c1[nH]nc2ccc(Sc3cccc(Cl)c3)nn12 8.22

Here is the next item to consider.
Record request: pIC50 value, item O=c1[nH]nc2ccc(Sc3ccc(Cl)c(Cl)c3)nn12
8.30
